// reported pKd per item
target-or-system: T1, recombinant human VEGF165 (human, UniProt P15692 27-191)
T1 construct: mature; Isoform VEGF165 of the entry; also called hVEGF165; hVEGF
T1 sequence (P15692 other isoform, or with tags, fused parts or gaps): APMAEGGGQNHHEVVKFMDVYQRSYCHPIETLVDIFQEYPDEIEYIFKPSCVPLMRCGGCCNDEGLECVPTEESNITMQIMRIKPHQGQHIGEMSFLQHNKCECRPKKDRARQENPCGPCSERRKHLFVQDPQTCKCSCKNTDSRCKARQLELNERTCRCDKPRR
experimental-details: Biacore SPR, VEGF immobilized, pH 5
API: returns pKd as number; meaning -log10 of concentration in mol/L.

Consider the worked cases shown below.
binder="578min_max T84N_V89A (scFv, the VH entry already carries the changes; tied by name; also called Protein Nr; 1009) scFv: EIVMTQSPSTLSASVGDRVIITCQASEIIHSWLAWYQQKPGKAPKLLIYLASTLASGVPSRFSGSGSGAEFTLTISSLQPDDFATYYCQNVYLASTNGANFGQGTKLTVLGGGGGSGGGGSGGGGSGGGGSEVQLVESGGGLVQPGGSLRLSCTASGFSLTDYYYMTWVRQAPGKGLEWVGFIDPDDDPYYATWAKGRFTISRDNSKNTAYLQMNSLRAEDTAVYYCAGGDHNSGWGLDIWGQGTLVTVSS" value_kind=pKd measured_number=9.21
binder="511max_min (scFv, also called Protein Nr; 905) scFv: EIVMTQSPSTLSASVGDRVIITCQASQSINIWLSWYQQKPGKAPKLLIYRASTLASGVPSRFSGSGSGTEFTLTISSLQPDDFATYYCQANYAYSAGYGAAFGQGTKLTVLGGGGGSGGGGSGGGGSGGGGSEVQLVESGGGLVQPGGSLRLSCAASGFSLNTYYMNWVRQAPGKGLEWVSIIAPDDTTYYASWAKSRFTISRDNSKNTLYLQMNSLRAEDTAVYYCAKSGDTTAWGADIWGQGTLVTVSS" value_kind=pKd measured_number=8.83

Endpoint output: pKd of 578-max FW1.4_DHP (scFv, Tied by name only; also called Protein Nr; 960) scFv: EIVMTQSPSTLSASVGDRVIITCQASEIIHSWLAWYQQKPGKAPKLLIYLASTLASGVPSRFSGSGSGTQFTLTISSLQPDDFATYYCQNVYLASTNGANFGQGTKLTVLGGGGGSGGGGSGGGGSGGGGSEVQLVESGGGSVQPGGSLRLSCTASGFSLTDYYYMTWVRQAPGKGLEWVGFIDPDDDPYYATWAKGRFTISRDTSKNTVYLQMNSLRAEDTATYYCAGGDHNSGWGLDIWGQGTTVTVSS . Value? 9.58
